ASSAY TARGET: Amyloid-beta precursor protein (Homo sapiens)
PROCEDURE TEXT: Inhibition of amyloid beta 40 (unknown origin) aggregation assessed as reduction in fibril formation by measuring fluorescence intensity at compound:Abeta40 concentration ratio of 1:1 and measured for 72 hrs by ThT flourescence assay relative to control
Activity calls are given as the source filed them. The calls are words filed in the database; no cut-off is given here. Where a SMILES comes first, the peptide text is derived from it. [ ]: non-standard residue; d: D form. Nle = CCCC[C@H](N)C(=O)O

MOLECULE: CCCC[C@@H]1NC(=O)N(CC(C)C)NC(=O)[C@H](CCCCN)NC(=O)[C@@H](CO)NC(=O)[C@H](Cc2c[nH]cn2)NC(=O)[C@@H](Cc2c[nH]c3ccccc23)NC1=O (racemic)
inhibition: inactive
--
MOLECULE: CCCC[C@@H]1NC(=O)[C@@H](CC(C)C)NC(=O)N(CCCCN)NC(=O)[C@@H](CO)NC(=O)[C@H](Cc2c[nH]cn2)NC(=O)[C@@H](Cc2c[nH]c3ccccc23)NC1=O (racemic)
inhibition: inactive
--
MOLECULE: CCCC[C@@H]1NC(=O)[C@@H](CC(C)C)NC(=O)[C@H](CCCCN)NC(=O)[C@@H](CO)NC(=O)[C@H](Cc2c[nH]cn2)NC(=O)[C@@H](Cc2c[nH]c3ccccc23)NC1=O (cyclo(K[dL][Nle][dW]H[dS]))
inhibition: 50%
--
MOLECULE: CCCCN1NC(=O)[C@@H](CC(C)C)NC(=O)[C@H](CCCCN)NC(=O)[C@@H](CO)NC(=O)[C@H](Cc2c[nH]cn2)NC(=O)[C@@H](Cc2c[nH]c3ccccc23)NC1=O (racemic)
inhibition: 93%
